The compounds listed here are annotated with their EPSA.
assay: physchem
Positions of bridges follow the written chain, without caps; N, C: chain ends. Non-standard residues stand in square brackets, D forms with d. Residues, ends and D or L forms follow the SMILES beside them. Lys(N3) = [N-]=[N+]=NCCCC[C@H](N)C(=O)O; R8 = C=CCCCCCC[C@@](C)(N)C(=O)O; Cba = N[C@@H](CC1CCC1)C(=O)O; S5 = C=CCCC[C@](C)(N)C(=O)O; βAla = NCCC(=O)O
Just the number in A^2, nothing appended.

COMPOUND	DISPLAY_UNIT	EPSA
CC(=O)N[C@@H](CCCCN=[N+]=[N-])C(=O)NCCC(=O)N[C@@H](CC(C)C)C(=O)N[C@H](C(=O)N[C@@H](Cc1ccccc1)C(=O)N[C@]1(C)CCCCCCC=CCCC[C@@](C)(C(=O)N[C@@H](CO)C(=O)N[C@@H](C)C(=O)N[C@@H](C)C(N)=O)NC(=O)[C@H](CC2CCC2)NC(=O)[C@H](CCC(N)=O)NC(=O)[C@H](C)NC(=O)[C@H](Cc2c[nH]c3ccccc23)NC(=O)[C@H](Cc2ccccc2)NC(=O)[C@H](CCC(=O)O)NC1=O)[C@@H](C)O [MP-028] (Ac-[Lys(N3)][βAla]LTF[R8]EFWAQ[Cba][S5]SAA-NH2; staple 6-13)	A^2	197
CC(=O)N[C@H](C(=O)N[C@@H](CO)C(=O)NC(C)(Cc1ccccc1)C(=O)N[C@]1(C)CCCCCCC=CCCC[C@@](C)(C(N)=O)NC(=O)[C@H](CC(C)C)NC(=O)[C@H](CC(C)C)NC(=O)[C@H](C)NC(=O)[C@H](Cc2c[nH]c3ccccc23)NC(=O)[C@H](Cc2ccc(O)cc2)NC(=O)[C@H](CCC(=O)O)NC1=O)[C@@H](C)O (stereo partly shown)	A^2	210
CC(=O)N[C@@H](CCCCN=[N+]=[N-])C(=O)NCCC(=O)N[C@H](C(=O)N[C@H](C(=O)N[C@@H](Cc1ccccc1)C(=O)N[C@]1(C)CCCCCCC=CCCC[C@@](C)(C(=O)N[C@@H](CO)C(=O)N[C@@H](C)C(=O)N[C@@H](C)C(N)=O)NC(=O)[C@H](CC2CCC2)NC(=O)[C@H](CCC(N)=O)NC(=O)[C@H](C(C)C)NC(=O)[C@H](Cc2c[nH]c3ccccc23)NC(=O)[C@H](Cc2ccc(O)cc2)NC(=O)[C@H](C(C)C)NC1=O)[C@@H](C)O)C(C)C [MP-490] (Ac-[Lys(N3)][βAla]VTF[R8]VYWVQ[Cba][S5]SAA-NH2; staple 6-13)	A^2	194
CC(=O)N[C@@H](CCCCN=[N+]=[N-])C(=O)NCCC(=O)N[C@@H](CC(C)C)C(=O)N[C@H](C(=O)N[C@@H](Cc1ccccc1)C(=O)N[C@]1(C)CCCCCCC=CCCC[C@@](C)(C(=O)N[C@@H](CO)C(=O)N[C@@H](C)C(=O)N[C@@H](C)C(N)=O)NC(=O)[C@H](CC2CCC2)NC(=O)CNC(=O)[C@H](C)NC(=O)[C@H](Cc2c[nH]c3ccccc23)NC(=O)[C@H](Cc2ccc(O)cc2)NC(=O)[C@H](CCC(=O)O)NC1=O)[C@@H](C)O [MP-262] (Ac-[Lys(N3)][βAla]LTF[R8]EYWAG[Cba][S5]SAA-NH2; staple 6-13)	A^2	207
CC(=O)N[C@@H](CC(C)C)C(=O)N[C@H](C(=O)N[C@@H](Cc1ccccc1)C(=O)N[C@]1(C)CCCCCCC=CCCC[C@@](C)(C(=O)N[C@@H](CO)C(=O)N[C@@H](C)C(=O)N[C@@H](C)C(N)=O)NC(=O)[C@H](CC2CCC2)NC(=O)[C@H](CC(C)C)NC(=O)[C@H](CCC(N)=O)NC(=O)[C@H](Cc2c[nH]c3ccccc23)NC(=O)[C@H](C)NC(=O)[C@H](CCC(=O)O)NC1=O)[C@@H](C)O [MP-363] (Ac-LTF[R8]EAWQL[Cba][S5]SAA-NH2; staple 4-11)	A^2	195
CC(=O)N[C@@H](CC(C)C)C(=O)N[C@H](C(=O)N[C@@H](Cc1ccccc1)C(=O)N[C@]1(C)CCCCCCC=CCCC[C@@](C)(C(=O)N[C@@H](CO)C(=O)N[C@@H](C)C(=O)N[C@@H](C)C(N)=O)NC(=O)[C@H](CC2CCC2)NC(=O)[C@H](CC(C)C)NC(=O)[C@H](CCC(N)=O)NC(=O)[C@@H](Cc2c[nH]c3ccccc23)NC(=O)[C@H](Cc2ccc(O)cc2)NC(=O)[C@H](CCC(=O)O)NC1=O)[C@@H](C)O	A^2	203
CC(=O)N[C@@H](CCCCN=[N+]=[N-])C(=O)NCCC(=O)N[C@@H](CC(C)C)C(=O)N[C@H](C(=O)N[C@@H](Cc1ccccc1)C(=O)N[C@]1(C)CCCCCCC=CCCC[C@@](C)(C(=O)N[C@@H](CO)C(=O)N(C)[C@@H](C)C(=O)N[C@@H](C)C(N)=O)NC(=O)[C@H](CC2CCC2)NC(=O)[C@H](CCC(N)=O)NC(=O)[C@H](C)NC(=O)[C@H](Cc2c[nH]c3ccccc23)NC(=O)[C@H](Cc2ccc(O)cc2)NC(=O)[C@H](CCC(=O)O)NC1=O)[C@@H](C)O	A^2	202
CC(=O)N[C@H](C)C(=O)N[C@H](C)C(=O)N[C@H](C)C(=O)N[C@H](C)C(=O)N[C@@H](CC(C)C)C(=O)N[C@H](C(=O)N[C@@H](Cc1ccccc1)C(=O)N[C@]1(C)CCCCCCC=CCCC[C@@](C)(C(=O)N[C@@H](CO)C(=O)N[C@@H](C)C(=O)N[C@@H](C)C(N)=O)NC(=O)[C@H](CC2CCC2)NC(=O)[C@H](CCC(N)=O)NC(=O)[C@H](C)NC(=O)[C@H](Cc2c[nH]c3ccccc23)NC(=O)[C@H](Cc2ccc(O)cc2)NC(=O)[C@H](CCC(=O)O)NC1=O)[C@@H](C)O	A^2	210
CC(=O)N[C@@H](CCCCN=[N+]=[N-])C(=O)NCCC(=O)N[C@@H](CC(C)C)C(=O)N[C@H](C(=O)N[C@@H](Cc1ccccc1)C(=O)N[C@]1(C)CCCCCCC=CCCC[C@@](C)(C(=O)N[C@@H](CO)C(=O)N[C@@H](C)C(=O)N[C@@H](C)C(N)=O)NC(=O)[C@H](CC2CCC2)NC(=O)[C@H](CCC(N)=O)NC(=O)[C@H](C)NC(=O)[C@H](Cc2c[nH]c3ccccc23)NC(=O)[C@H](CCC(=O)O)NC(=O)[C@H](C)NC1=O)[C@@H](C)O [MP-029] (Ac-[Lys(N3)][βAla]LTF[R8]AEWAQ[Cba][S5]SAA-NH2; staple 6-13)	A^2	182

Now look at this entry.
Prompt: Which EPSA reading was recorded for the compound CC(=O)N[C@@H](C)C(=O)N[C@@H](C)C(=O)N[C@@H](C)C(=O)N[C@@H](C)C(=O)N[C@@H](CC(C)C)C(=O)N[C@H](C(=O)N[C@@H](Cc1ccccc1)C(=O)N[C@]1(C)CCCCCCC=CCCC[C@@](C)(C(=O)N[C@@H](CO)C(=O)N[C@@H](C)C(=O)N[C@@H](C)C(N)=O)NC(=O)[C@H](CC2CCC2)NC(=O)[C@H](CCC(N)=O)NC(=O)[C@H](C)NC(=O)[C@H](Cc2c[nH]c3ccccc23)NC(=O)[C@H](Cc2ccc(O)cc2)NC(=O)[C@H](CCC(=O)O)NC1=O)[C@@H](C)O ?
Completion: 219

Ref: paper PMC10786919
